B1: tRNA (parent)
chain: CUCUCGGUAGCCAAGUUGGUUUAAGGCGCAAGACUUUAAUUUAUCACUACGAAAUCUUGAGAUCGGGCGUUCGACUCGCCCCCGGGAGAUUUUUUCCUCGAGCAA

variants of: B1; experiment: nonsense suppression (GFP-seq) (ratio to wild type); higher = more function; SUP4oc tRNA, yeast GFP reporter sort-seq
This sample holds only a part of the variants without activity.
Reported nonsense suppression values for the following variants.
# answer = number (no unit)

U16A G85A | 1.03
U4G U20G U22A | 0.21
A13C U21C | 1.17
U17C A33G | 0.0608
C3U A31G | 0.0805

## Input Please indicate nonsense suppression recorded for U17A G78U
## Output 0.186

## Input State its nonsense suppression for this variant: A9G A30G
## Output 0.466
